Origin of measurements: patent US20210255193A1

Overview of recorded isoTOP-ABPP ratio (R) at liganded lysine Q2M389_K302 for various compounds
Target: KIAA1033 WASH complex subunit 7 (Homo sapiens, UniProt Q2M389)
Construct: isoTOP-ABPP experiments performed in cell lysates (in vitro); endogenous in cells; host or cells: soluble proteome of human cancer cell lines (MDA-MB-231; Ramos and Jurkat also prepared)
Sequence (Q2M389 1-1173): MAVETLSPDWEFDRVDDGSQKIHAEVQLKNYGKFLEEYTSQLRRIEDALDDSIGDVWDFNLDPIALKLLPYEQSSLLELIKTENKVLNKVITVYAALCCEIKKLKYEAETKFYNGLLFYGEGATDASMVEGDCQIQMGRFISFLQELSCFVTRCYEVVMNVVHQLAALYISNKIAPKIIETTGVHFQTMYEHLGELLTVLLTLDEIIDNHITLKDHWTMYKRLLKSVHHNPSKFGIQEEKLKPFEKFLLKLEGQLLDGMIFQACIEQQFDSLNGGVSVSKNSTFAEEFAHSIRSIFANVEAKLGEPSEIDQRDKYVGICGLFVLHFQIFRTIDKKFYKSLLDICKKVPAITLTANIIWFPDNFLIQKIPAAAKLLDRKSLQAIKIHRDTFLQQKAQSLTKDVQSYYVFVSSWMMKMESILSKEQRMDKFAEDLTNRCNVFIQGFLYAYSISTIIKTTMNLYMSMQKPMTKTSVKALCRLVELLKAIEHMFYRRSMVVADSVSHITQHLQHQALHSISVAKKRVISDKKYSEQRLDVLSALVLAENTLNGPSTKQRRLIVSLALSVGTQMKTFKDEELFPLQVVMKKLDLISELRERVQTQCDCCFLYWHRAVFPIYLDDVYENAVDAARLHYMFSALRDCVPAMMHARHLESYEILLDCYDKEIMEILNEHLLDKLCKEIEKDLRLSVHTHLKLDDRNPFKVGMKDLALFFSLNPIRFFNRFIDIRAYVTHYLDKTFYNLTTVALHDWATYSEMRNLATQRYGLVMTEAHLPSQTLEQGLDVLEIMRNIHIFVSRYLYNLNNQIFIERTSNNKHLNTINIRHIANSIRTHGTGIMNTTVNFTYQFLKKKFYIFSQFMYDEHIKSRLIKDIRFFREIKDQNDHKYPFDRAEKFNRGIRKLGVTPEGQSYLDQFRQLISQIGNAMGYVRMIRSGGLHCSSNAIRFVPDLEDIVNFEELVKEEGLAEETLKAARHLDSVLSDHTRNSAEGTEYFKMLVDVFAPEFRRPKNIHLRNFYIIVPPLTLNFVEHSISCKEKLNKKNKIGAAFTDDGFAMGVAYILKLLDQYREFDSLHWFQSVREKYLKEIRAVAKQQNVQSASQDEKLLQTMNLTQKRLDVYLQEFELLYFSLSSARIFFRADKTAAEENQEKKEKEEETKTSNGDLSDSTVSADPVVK
Assay: competitive isoTOP-ABPP
Type: binding
Conditions: 50 uM, in vitro, sol, 231
Answer field: number only, no words.

INSERT INTO results (compound, numeric_readout) VALUES
  ('O=C(CCc1coc2cc(F)ccc2c1=O)Oc1ccc([N+](=O)[O-])cc1[N+](=O)[O-]', 1.2),
  ('O=C(Oc1ccc([N+](=O)[O-])cc1[N+](=O)[O-])c1ccc(Oc2ccccc2)cc1 [fragment 39, 2,4-Dinitrophenyl 4-phenoxybenzoate]', 1.2),
  ('O=C(Oc1ccc([N+](=O)[O-])cc1[N+](=O)[O-])c1ccccc1Nc1cccc(C(F)(F)F)c1', 0.9),
  ('O=C(Oc1ccc([N+](=O)[O-])cc1[N+](=O)[O-])c1ccc2ccccc2n1', 1.4),
  ('CC(C)(C)OC(=O)NCCCC(=O)Oc1ccc([N+](=O)[O-])cc1[N+](=O)[O-]', 1.5);

Could you now consider this next compound?
If you can, please state the reported isoTOP-ABPP ratio (R) at liganded lysine Q2M389_K302 value of O=C(Oc1ccc([N+](=O)[O-])cc1[N+](=O)[O-])c1ccc(-c2ccccc2)cc1 .
0.9

---

Collected R value (DMSO/fragment) for probe 1 labeling values appear next to each entry.
Target: RQCD1 Cell differentiation protein RCD1 homolog (Homo sapiens)
Construct: isoTOP-ABPP experiments performed in cell lysates (in vitro); endogenous in cells; host or cells: soluble proteome of human cancer cell lines (MDA-MB-231; Ramos and Jurkat also prepared)
Sequence (Q92600 whole entry): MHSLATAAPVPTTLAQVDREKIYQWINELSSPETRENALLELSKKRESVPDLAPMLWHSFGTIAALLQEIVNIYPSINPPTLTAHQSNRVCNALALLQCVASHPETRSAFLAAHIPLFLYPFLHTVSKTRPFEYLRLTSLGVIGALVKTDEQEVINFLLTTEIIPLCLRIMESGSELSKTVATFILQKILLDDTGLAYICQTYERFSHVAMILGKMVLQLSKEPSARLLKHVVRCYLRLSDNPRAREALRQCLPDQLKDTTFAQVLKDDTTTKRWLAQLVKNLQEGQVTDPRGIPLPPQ
Experiment: competitive isoTOP-ABPP
Format: binding
Conditions: Q92600_K230; 50 uM, 231 sol, in vitro

// below: answered compounds
INSERT INTO assay_data (compound, result) VALUES
  ('COc1cc(CCC(=O)Oc2c(F)c(F)c(F)c(F)c2F)cc(OC)c1OC', 1.1),
  ('O=C(Oc1c(F)c(F)c(F)c(F)c1F)c1cc(C(F)(F)F)cc(C(F)(F)F)c1', 0.9);

I have this compound here, Cn1cc(CC(=O)Oc2c(F)c(F)c(F)c(F)c2F)c2ccccc21 , and I need its recorded R value (DMSO/fragment) for probe 1 labeling.
1.0

Quick one: R value (DMSO/fragment) for probe 1 labeling of O=C(CCc1cn(-c2ccccc2)nc1-c1ccccc1)Oc1c(F)c(F)c(F)c(F)c1F ?
1.0

Give its R value (DMSO/fragment) for probe 1 labeling value. Item: O=C(Oc1c(F)c(F)c(F)c(F)c1F)C(c1ccccc1)c1ccccc1 [fragment 20, Pentafluorophenyl 2,2-diphenylacetate]
0.9

---

Molecular target: EEF2 Elongation factor 2 (Homo sapiens, UniProt P13639)
Construct: isoTOP-ABPP experiments performed in cell lysates (in vitro); endogenous in cells; host or cells: soluble proteome of human cancer cell lines (MDA-MB-231; Ramos and Jurkat also prepared)
Experiment: competitive isoTOP-ABPP
Type: binding
Conditions: 50 uM_231_sol_in vitro
Label rule, in plain words: isoTOP-ABPP ratio, lysine P13639_K235 of 1 and up is YES, under 1 is NO.

INSERT INTO measurements (molecule, assigned_label) VALUES
  ('O=C(Oc1c(F)c(F)cc(F)c1F)c1cc(C(F)(F)F)cc(C(F)(F)F)c1', 'YES'),
  ('O=C(ON1C(=O)CCC1=O)c1cc(C(F)(F)F)cc(C(F)(F)F)c1', 'YES'),
  ('O=C(Oc1c(F)c(F)c(C(F)(F)F)c(F)c1F)c1cc(C(F)(F)F)cc(C(F)(F)F)c1', 'YES');

API: the following record is the query input.
Does the reported isoTOP-ABPP ratio, lysine P13639_K235 for NC(=O)c1cc(C(F)(F)F)cc(C(F)(F)F)c1 [fragment 51, reference compound] fall at or above the 1 mark?
NO

---

Recorded isoTOP-ABPP reactivity ratio at lysine Q13033_K755 values for a group of compounds are listed next.
Target: STRN3 Striatin-3 (Homo sapiens)
Construct: isoTOP-ABPP experiments performed in cell lysates (in vitro); endogenous in cells; host or cells: soluble proteome of human cancer cell lines (MDA-MB-231, Ramos, Jurkat)
Sequence (Q13033 1-797): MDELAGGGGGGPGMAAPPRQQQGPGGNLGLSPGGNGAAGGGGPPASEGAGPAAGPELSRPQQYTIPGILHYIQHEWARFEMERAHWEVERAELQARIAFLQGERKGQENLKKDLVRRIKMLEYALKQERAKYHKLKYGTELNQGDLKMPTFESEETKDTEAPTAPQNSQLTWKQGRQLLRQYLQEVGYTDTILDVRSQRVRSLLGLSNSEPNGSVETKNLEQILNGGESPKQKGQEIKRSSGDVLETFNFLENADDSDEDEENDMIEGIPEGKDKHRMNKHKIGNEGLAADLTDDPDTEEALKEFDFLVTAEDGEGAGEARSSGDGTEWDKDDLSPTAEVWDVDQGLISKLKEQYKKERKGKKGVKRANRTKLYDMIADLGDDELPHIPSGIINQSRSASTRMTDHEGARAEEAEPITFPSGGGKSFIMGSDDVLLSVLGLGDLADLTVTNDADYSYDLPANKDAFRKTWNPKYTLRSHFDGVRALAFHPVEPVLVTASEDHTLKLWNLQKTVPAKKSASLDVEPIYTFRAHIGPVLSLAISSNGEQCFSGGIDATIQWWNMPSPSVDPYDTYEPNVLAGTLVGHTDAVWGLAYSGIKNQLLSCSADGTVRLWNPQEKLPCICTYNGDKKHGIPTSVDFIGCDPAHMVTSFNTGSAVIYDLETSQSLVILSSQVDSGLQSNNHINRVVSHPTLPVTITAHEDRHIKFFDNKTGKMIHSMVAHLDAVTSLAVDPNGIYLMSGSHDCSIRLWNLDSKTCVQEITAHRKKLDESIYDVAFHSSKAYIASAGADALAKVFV
Test: competitive isoTOP-ABPP
Type: binding
Conditions: 50 uM, 231 sol, in vitro
Reply with just the number.

Bench note: what isoTOP-ABPP reactivity ratio at lysine Q13033_K755 did Cn1cc(CC(=O)Oc2ccc([N+](=O)[O-])cc2[N+](=O)[O-])c2ccccc21 show?
2.7

Param item = O=C(Oc1c(F)c(F)c(F)c(F)c1F)c1ccc2ccccc2n1 ; retrieve measured isoTOP-ABPP reactivity ratio at lysine Q13033_K755.
1.0

Given O=C(CN1C(=O)c2ccccc2C1=O)Oc1c(F)c(F)c(F)c(F)c1F , state its recorded isoTOP-ABPP reactivity ratio at lysine Q13033_K755.
1.0

Which isoTOP-ABPP reactivity ratio at lysine Q13033_K755 reading was recorded for the compound O=C(Oc1ccc([N+](=O)[O-])cc1[N+](=O)[O-])C(c1ccccc1)c1ccccc1 [fragment 30, 2,4-Dinitrophenyl 2,2-diphenylacetate] ?
2.0

Name the recorded isoTOP-ABPP reactivity ratio at lysine Q13033_K755 for CCn1cc(C(=O)Oc2c(F)c(F)c(F)c(F)c2F)c(=O)c2ccc(C)nc21 .
0.9

Endpoint output: isoTOP-ABPP reactivity ratio at lysine Q13033_K755 of O=C(CCc1coc2cc(F)ccc2c1=O)Oc1c(F)c(F)c(F)c(F)c1F . Value?
1.0
